From: ChEMBL document CHEMBL1135201

system_under_test: Human immunodeficiency virus type 1 protease (Human immunodeficiency virus 1)
metric: pIC50
pIC50 (log units): -log10 of the concentration in mol/L.

1. Cc1cc(O)cc(C)c1CNC(=O)[C@H](Cc1ccccc1)C[C@@H](O)CN1CCN(S(=O)(=O)c2cccs2)C[C@@H]1C(=O)NC(C)(C)C = 9.33
2. CC(C)(C)NC(=O)[C@H]1CN(S(=O)(=O)c2cccs2)CCN1C[C@H](O)C[C@@H](Cc1ccccc1)C(=O)NC1c2ccccc2C[C@H]1O (some centres undefined) = 10.00

// moving on: another record for pIC50
Form entry - test system: Human immunodeficiency virus type 1 protease (Human immunodeficiency virus 1); read-out: pIC50; molecule: Cc1cc(O)cc(C)c1CNC(=O)[C@H](Cc1ccccc1)C[C@@H](O)CN1CCN(S(=O)(=O)c2ccc3c(c2)CCN3c2ncccn2)C[C@@H]1C(=O)NC(C)(C)C
9.70
